meta.source: paper PMC12655351

system: U251; assay: NCI-60 SRB screen; settings: Homo sapiens, U-251, 48 h, read-out: LC50, U251, 48 h
Measurement type: CC50 (µM)
Give bare numbers, in µM.

O=C(O)CCCN1C(=O)/C(=C/C=C/c2ccc([N+](=O)[O-])o2)SC1=S [13b]; 4.23
O=C(O)C(c1ccccc1)N1C(=O)/C(=C/C=C/c2ccc([N+](=O)[O-])o2)SC1=S (stereo not shown) [9b]; 49.8
O=C(O)CCN1C(=O)/C(=C/C=C/c2ccc([N+](=O)[O-])o2)SC1=S [12b]; 5.53

Fill in CC50 for each of the 4 compounds listed.
1. CC(C)C(C(=O)O)N1C(=O)/C(=C/C=C/c2ccc([N+](=O)[O-])o2)SC1=S (stereo not shown) [5b]
2. CCCCC(C(=O)O)N1C(=O)/C(=C/C=C/c2ccc([N+](=O)[O-])o2)SC1=S (stereo not shown) [6b]
3. O=C(O)CCCCCN1C(=O)/C(=C/C=C/c2ccc([N+](=O)[O-])o2)SC1=S [14b]
4. CCCC(C(=O)O)N1C(=O)/C(=C/C=C/c2ccc([N+](=O)[O-])o2)SC1=S (stereo not shown) [4b]

Response:
1. 4.64
2. 11
3. 4.86
4. 6.7

---

tested on: Leukemia
Measurement type: GI50 (µM)
Answers are plain numbers, in µM.

Example cases with answers are listed next.
CC(C)C(C(=O)O)N1C(=O)/C(=C/C=C/c2ccc([N+](=O)[O-])o2)SC1=S (stereo not shown); 0.84
O=C(O)C(c1ccccc1)N1C(=O)/C(=C/C=C/c2ccc([N+](=O)[O-])o2)SC1=S (stereo not shown); 6.64
O=C(O)CCCCCN1C(=O)/C(=C/C=C/c2ccc([N+](=O)[O-])o2)SC1=S [14b]; 0.41
CCCCC(C(=O)O)N1C(=O)/C(=C/C=C/c2ccc([N+](=O)[O-])o2)SC1=S (stereo not shown); 2.57
O=C(O)CCCN1C(=O)/C(=C/C=C/c2ccc([N+](=O)[O-])o2)SC1=S [13b]; 9.34
O=C(O)CCN1C(=O)/C(=C/C=C/c2ccc([N+](=O)[O-])o2)SC1=S [12b]; 0.66

Field: next compound
Request: # get_value(readout='GI50', item= CCCC(C(=O)O)N1C(=O)/C(=C/C=C/c2ccc([N+](=O)[O-])o2)SC1=S (stereo not shown) )
Response: 2.36

---

system: HCT-116; conditions: HCT-116, 48 h
Measurement type: TGI (µM)
Answers are plain numbers, in µM.

CCCCC(C(=O)O)N1C(=O)/C(=C/C=C/c2ccc([N+](=O)[O-])o2)SC1=S (centres unmarked) [6b]; 4.05
CCCC(C(=O)O)N1C(=O)/C(=C/C=C/c2ccc([N+](=O)[O-])o2)SC1=S (centres unmarked) [4b]; 3.90
CC(C)C(C(=O)O)N1C(=O)/C(=C/C=C/c2ccc([N+](=O)[O-])o2)SC1=S (centres unmarked) [5b]; 1.13
O=C(O)CCN1C(=O)/C(=C/C=C/c2ccc([N+](=O)[O-])o2)SC1=S [12b]; 3.57

Field: next compound
Request: # get_value(readout='TGI', item= O=C(O)C(c1ccccc1)N1C(=O)/C(=C/C=C/c2ccc([N+](=O)[O-])o2)SC1=S (centres unmarked) [9b] )
Response: 8.14

---

tested on: OVCAR-5; test: NCI-60 SRB screen; conditions: OVCAR-5, 48 h
Threshold check on TGI: strictly below 5 µM is Y; on or above 5 µM is N.

Use these answered entries as a reference point.
CC(C)C(C(=O)O)N1C(=O)/C(=C/C=C/c2ccc([N+](=O)[O-])o2)SC1=S (centres unmarked); Y
CCCCC(C(=O)O)N1C(=O)/C(=C/C=C/c2ccc([N+](=O)[O-])o2)SC1=S (centres unmarked); Y
CCCC(C(=O)O)N1C(=O)/C(=C/C=C/c2ccc([N+](=O)[O-])o2)SC1=S (centres unmarked); Y
O=C(O)C(c1ccccc1)N1C(=O)/C(=C/C=C/c2ccc([N+](=O)[O-])o2)SC1=S (centres unmarked); N

Please examine the following record next.
Request: Does O=C(O)CCN1C(=O)/C(=C/C=C/c2ccc([N+](=O)[O-])o2)SC1=S [12b] have TGI strictly under 5 µM?
Response: Y

---

system: SF-295; assay: NCI-60 SRB screen; conditions: Homo sapiens, SF-295, 48 h, read-out: LC50, SF-295, 48 h
Threshold check on CC50: strictly below 9 µM is y; on or above 9 µM is n.

CCCC(C(=O)O)N1C(=O)/C(=C/C=C/c2ccc([N+](=O)[O-])o2)SC1=S (stereo not shown); n
O=C(O)CCCN1C(=O)/C(=C/C=C/c2ccc([N+](=O)[O-])o2)SC1=S [13b]; y
O=C(O)CCCCCN1C(=O)/C(=C/C=C/c2ccc([N+](=O)[O-])o2)SC1=S [14b]; y

Request: Does CCCCC(C(=O)O)N1C(=O)/C(=C/C=C/c2ccc([N+](=O)[O-])o2)SC1=S (stereo not shown) have CC50 strictly under 9 µM?
Response: n

Request: Does O=C(O)CCN1C(=O)/C(=C/C=C/c2ccc([N+](=O)[O-])o2)SC1=S [12b] have CC50 strictly under 9 µM?
Response: n

Request: Does O=C(O)C(c1ccccc1)N1C(=O)/C(=C/C=C/c2ccc([N+](=O)[O-])o2)SC1=S (stereo not shown) have CC50 strictly under 9 µM?
Response: n

Request: Does CC(C)C(C(=O)O)N1C(=O)/C(=C/C=C/c2ccc([N+](=O)[O-])o2)SC1=S (stereo not shown) have CC50 strictly under 9 µM?
Response: y

---

test system: SK-MEL-5; conditions: human, 48 h
Please respond with reported CC50 for every item in the list.
One number for each entry, in µM.

O=C(O)CCCN1C(=O)/C(=C/C=C/c2ccc([N+](=O)[O-])o2)SC1=S [13b]; 5.96

Field: next compound
Request: # get_value(readout='CC50', item= O=C(O)CCCCCN1C(=O)/C(=C/C=C/c2ccc([N+](=O)[O-])o2)SC1=S [14b] )
Response: 6.38

---

system: NCI-H322M; experiment: NCI-60 SRB screen; conditions: 48 h
Measurement type: TGI (µM)
Answers are plain numbers, in µM.

CCCCC(C(=O)O)N1C(=O)/C(=C/C=C/c2ccc([N+](=O)[O-])o2)SC1=S (centres unmarked); 15.0
O=C(O)CCN1C(=O)/C(=C/C=C/c2ccc([N+](=O)[O-])o2)SC1=S [12b]; 19.8
O=C(O)C(c1ccccc1)N1C(=O)/C(=C/C=C/c2ccc([N+](=O)[O-])o2)SC1=S (centres unmarked); 26.6
CCCC(C(=O)O)N1C(=O)/C(=C/C=C/c2ccc([N+](=O)[O-])o2)SC1=S (centres unmarked); 14.2

Field: next molecule
Request: # get_value(readout='TGI', item= CC(C)C(C(=O)O)N1C(=O)/C(=C/C=C/c2ccc([N+](=O)[O-])o2)SC1=S (centres unmarked) )
Response: 3.88

---

Please respond with reported MG_MID TGI for every item in the list.
system: Melanoma; settings: Melanoma subpanel
One number for each entry, in µM.

O=C(O)CCCN1C(=O)/C(=C/C=C/c2ccc([N+](=O)[O-])o2)SC1=S [13b]; 1.46
CCCCC(C(=O)O)N1C(=O)/C(=C/C=C/c2ccc([N+](=O)[O-])o2)SC1=S (stereo not shown) [6b]; 3.59
CCCC(C(=O)O)N1C(=O)/C(=C/C=C/c2ccc([N+](=O)[O-])o2)SC1=S (stereo not shown) [4b]; 3.41
O=C(O)C(c1ccccc1)N1C(=O)/C(=C/C=C/c2ccc([N+](=O)[O-])o2)SC1=S (stereo not shown) [9b]; 20.0
O=C(O)CCCCCN1C(=O)/C(=C/C=C/c2ccc([N+](=O)[O-])o2)SC1=S [14b]; 1.82
CC(C)C(C(=O)O)N1C(=O)/C(=C/C=C/c2ccc([N+](=O)[O-])o2)SC1=S (stereo not shown) [5b]; 2.68

Field: next molecule
Request: # get_value(readout='MG_MID TGI', item= O=C(O)CCN1C(=O)/C(=C/C=C/c2ccc([N+](=O)[O-])o2)SC1=S [12b] )
Response: 2.60

---

Please respond with reported TGI for every item in the list.
tested on: RXF 393; assay: NCI-60 SRB screen; conditions: RXF 393, 48 h
One number for each entry, in µM.

Example cases with answers are listed next.
O=C(O)C(c1ccccc1)N1C(=O)/C(=C/C=C/c2ccc([N+](=O)[O-])o2)SC1=S (centres unmarked) [9b]; 14.6
CCCC(C(=O)O)N1C(=O)/C(=C/C=C/c2ccc([N+](=O)[O-])o2)SC1=S (centres unmarked) [4b]; 3.40
O=C(O)CCN1C(=O)/C(=C/C=C/c2ccc([N+](=O)[O-])o2)SC1=S [12b]; 3.02

Fill in TGI for each of the 2 compounds listed.
1. CCCCC(C(=O)O)N1C(=O)/C(=C/C=C/c2ccc([N+](=O)[O-])o2)SC1=S (centres unmarked) [6b]
2. CC(C)C(C(=O)O)N1C(=O)/C(=C/C=C/c2ccc([N+](=O)[O-])o2)SC1=S (centres unmarked) [5b]

Response:
1: 3.20; 2: 3.27
